# Test system: Caenorhabditis elegans
# experimental-details: HTS runs (initial and follow-up): mOD, % Run and visual score (Table 3); as to Follow-up HTS Run Visual Score: test concentration or dose not given here
# Format: in vivo
# Set-up: key: Dead: only stiff L1s (no movement); Dead (L4): worms are dead, but at a later larval stage; majority of worms are L1 (based on size); majority of worms are L2 (based on size); majority of worms are L3 (based on size); majority of worms are L4 (based on size); AD: majority of worms are adult; #AD: 5 adult worms or less; B!: sterile (0-25 progeny); B: low broodsize (25-100 progeny); ˜B: moderate broodsize (100-250 progeny); <: reduced broodsize (250-500 progeny); OK: no effect (˜1000+ progeny)
# stated-conditions: Follow-up HTS Run
property-measured: Follow-up HTS Run Visual Score

// known answers, use as guide
| compound | Follow-up HTS Run Visual Score |
| --- | --- |
| C#Cc1cccc(N(CC(=O)Nc2ccc(S(N)(=O)=O)cc2)Cc2cccs2)c1 [AKC 394] | Dead |
| FC(F)(F)c1ccc(CNc2cc(Oc3cccc(Cl)c3)ncn2)cc1 [AKC 356] | L2 |
| CCN(C)c1cc(Oc2ccc3ccccc3c2)ncn1 [AKC 350] | Dead |
| CCCCCCCCCCCCNc1cc(Oc2ccccc2OC)ncn1 [AKC 398] | Dead |

Please examine the following record next.
Field: Follow-up HTS Run Visual Score (Caenorhabditis elegans). Entry: CCC(NC(=O)Nc1ccc(NC(=O)C2CCCO2)cc1)c1cccc(S(N)(=O)=O)c1 (centres unmarked) [AKC 405]
1AD/B!

---

In this section we review reported Initial HTS Run % Run values for a set of compounds.
# Test system: Caenorhabditis elegans
# experimental-details: HTS runs (initial and follow-up): mOD, % Run and visual score (Table 3)
# Type: in vivo
# stated-conditions: Initial HTS Run
Number only, in %; omit the unit.

// known answers, use as guide
| compound | unit-of-measure | Initial HTS Run % Run |
| --- | --- | --- |
| Fc1ccc(Oc2cc(NCc3ccc(C(F)(F)F)cc3)ncn2)cc1 [AKC 358] | % | 129 |
| FC(F)(F)c1cccc(CNc2cc(Oc3ccccc3Cl)ncn2)c1 [AKC 383] | % | 132 |
| CCC(NC(=O)Nc1ccc(NC(=O)C2CCCO2)cc1)c1cccc(S(N)(=O)=O)c1 (centres unmarked) [AKC 405] | % | 141 |
| NS(=O)(=O)c1cccc(NC(=O)CCN2CCC(c3cccc4[nH]ccc34)CC2)c1 [AKC 377] | % | 113 |
| Fc1ccc(Oc2cc(NCc3cc(F)cc(F)c3)ncn2)cc1 [AKC 369] | % | 115 |
| Fc1ccc(Oc2cc(NCc3cccc(C(F)(F)F)c3)ncn2)cc1 [AKC 380] | % | 129 |
| CC(C)(C)OC(=O)N1CCN(c2cc(Oc3ccccc3Cl)ncn2)CC1 [AKC 374] | % | 139 |

Please examine the following record next.
Which Initial HTS Run % Run is listed for CCC1CCCCN1c1cc(Oc2ccc3oc4ccccc4c3c2)ncn1 (centres unmarked) [AKC 109] ?
132

---

In this section we review reported Initial HTS Run % Run values for a set of compounds.
# System: Caenorhabditis elegans
# experimental-details: HTS runs (initial and follow-up): mOD, % Run and visual score (Table 3)
# Assay type: in vivo
# stated-conditions: Initial HTS Run
# Description: The nematicidal activity of anthelmintic Compositions 48-118 were determined in accordance with the procedure outlined in Example 2.
Number only, in %; omit the unit.

// known answers, use as guide
| smiles-code | target-system | observed-result |
| --- | --- | --- |
| C#Cc1cccc(N(CC(=O)Nc2ccc(S(N)(=O)=O)cc2)Cc2cccs2)c1 | Caenorhabditis elegans | 135 |
| CN(Cc1ccccc1)c1cc(Oc2cccc(F)c2)ncn1 | Caenorhabditis elegans | 131 |
| FC(F)(F)c1cccc(CNc2cc(Oc3ccc(-c4ccccc4)cc3)ncn2)c1 | Caenorhabditis elegans | 141 |
| FC(F)(F)c1ccccc1CNc1cc(Oc2ccc(-c3ccccc3)cc2)ncn1 | Caenorhabditis elegans | 142 |
| Fc1ccc(Oc2cc(NCc3ccccc3F)ncn2)cc1 | Caenorhabditis elegans | 123 |

Which Initial HTS Run % Run is listed for COc1ccc(Oc2cc(NCc3ccc(C(F)(F)F)cc3)ncn2)cc1 ?
115

Which Initial HTS Run % Run is listed for c1ccc2c(c1)CCN(c1cc(Oc3ccc4ccccc4c3)ncn1)C2 ?
106

---

# Test system: Caenorhabditis elegans
# experimental-details: HTS runs (initial and follow-up): mOD, % Run and visual score (Table 3); as to Initial HTS Run Visual Score: test concentration or dose not given here
# Type: in vivo
# Parameters: key: Dead: only stiff L1s (no movement); Dead (L4): worms are dead, but at a later larval stage; majority of worms are L1 (based on size); majority of worms are L2 (based on size); majority of worms are L3 (based on size); majority of worms are L4 (based on size); AD: majority of worms are adult; #AD: 5 adult worms or less; B!: sterile (0-25 progeny); B: low broodsize (25-100 progeny); ˜B: moderate broodsize (100-250 progeny); <: reduced broodsize (250-500 progeny); OK: no effect (˜1000+ progeny)
# stated-conditions: Initial HTS Run
property-measured: Initial HTS Run Visual Score

| compound | target-system | Initial HTS Run Visual Score |
| --- | --- | --- |
| CCCCCCCCCCCCNc1cc(Oc2ccccc2Cl)ncn1 | Caenorhabditis elegans | Dead |
| FC(F)(F)c1ccc(CNc2cc(Oc3cccc(Cl)c3)ncn2)cc1 | Caenorhabditis elegans | Dead |
| Clc1cccc(CNc2cc(Oc3cccc(Cl)c3)ncn2)c1 | Caenorhabditis elegans | 4AD/˜B |
| NS(=O)(=O)c1ccc(NC(=O)CN2CCCC(NC(=O)c3cc4ccccc4o3)C2)cc1 (stereo not drawn) | Caenorhabditis elegans | Dead |
| CN(Cc1ccccc1)c1cc(Oc2cccc(F)c2)ncn1 | Caenorhabditis elegans | L2 |

Which Initial HTS Run Visual Score is listed for FC(F)(F)c1cccc(CNc2cc(Oc3ccc(-c4ccccc4)cc3)ncn2)c1 ?
Dead

Which Initial HTS Run Visual Score is listed for C#Cc1cccc(N(CC(=O)Nc2ccc(S(N)(=O)=O)cc2)Cc2cccs2)c1 ?
Dead

---

In this section we review reported Follow-up HTS Run % Run values for a set of compounds.
# Test system: Caenorhabditis elegans
# experimental-details: HTS runs (initial and follow-up): mOD, % Run and visual score (Table 3)
# Format: in vivo
# stated-conditions: Follow-up HTS Run
# Procedure: The nematicidal activity of anthelmintic Compositions 48-118 were determined in accordance with the procedure outlined in Example 2.
Number only, in %; omit the unit.

| compound | Follow-up HTS Run % Run [%] |
| --- | --- |
| FC(F)(F)c1ccccc1CNc1cc(Oc2ccc(-c3ccccc3)cc2)ncn1 [AKC 339] | 113 |
| FC(F)(F)c1ccc(CNc2cc(Oc3ccccc3Cl)ncn2)cc1 [AKC 360] | 112 |
| COc1ccc(Oc2cc(NCc3ccc(C(F)(F)F)cc3)ncn2)cc1 [AKC 357] | 98 |
| Clc1cccc(Oc2cc(NCc3ccccc3Cl)ncn2)c1 [AKC 376] | 115 |
| Fc1ccc(F)c(CNc2cc(Oc3cccc(Cl)c3)ncn2)c1 [AKC 354] | 108 |
| CCCCCCCCCCCCNc1cc(Oc2ccccc2OC)ncn1 [AKC 398] | 93 |
| Fc1ccc(Oc2cc(NCc3ccccc3F)ncn2)cc1 [AKC 367] | 91 |
| CC(CCc1ccccc1)Nc1cc(Oc2ccc(-c3ccccc3)cc2)ncn1 (centres unmarked) [AKC 149] | 100 |

Please examine the following record next.
Which Follow-up HTS Run % Run is listed for Fc1ccccc1Oc1cc(NCc2cccc(C(F)(F)F)c2)ncn1 [AKC 381] ?
109

---

# Test system: Caenorhabditis elegans
# experimental-details: HTS runs (initial and follow-up): mOD, % Run and visual score (Table 3)
# Type: in vivo
# stated-conditions: Initial HTS Run
# Experimental: The nematicidal activity of anthelmintic Compositions 48-118 were determined in accordance with the procedure outlined in Example 2.
property-measured: Initial HTS Run % Run (%)
Number only, in %; omit the unit.

| compound | target-system | observed-result |
| --- | --- | --- |
| FC(F)(F)c1ccc(CNc2cc(Oc3ccccc3Cl)ncn2)cc1 | Caenorhabditis elegans | 139 |
| CCCCCCCCCCCCNc1cc(Oc2ccccc2Cl)ncn1 | Caenorhabditis elegans | 155 |
| CCCCCCCCCCCCNc1cc(Oc2ccccc2OC)ncn1 | Caenorhabditis elegans | 118 |
| CCC1CCCCN1c1cc(Oc2ccc(-c3ccccc3)cc2)ncn1 (stereo not shown) | Caenorhabditis elegans | 143 |
| CCN(C)c1cc(Oc2ccc3ccccc3c2)ncn1 | Caenorhabditis elegans | 126 |
| CN(c1cc(Oc2ccc(-c3ccccc3)cc2)ncn1)C1CCCCC1 | Caenorhabditis elegans | 141 |
| CC(C)(C)OC(=O)NCc1ccc(-c2cccc(C(=O)Nc3ccc(S(N)(=O)=O)cc3)c2)cc1 | Caenorhabditis elegans | 133 |
| CC(C)(C)OC(=O)N1CCN(c2cc(Oc3ccc(F)cc3)ncn2)CC1 | Caenorhabditis elegans | 132 |

Field: Initial HTS Run % Run (Caenorhabditis elegans). Entry: Fc1ccc(F)c(CNc2cc(Oc3cccc(Cl)c3)ncn2)c1
137

Field: Initial HTS Run % Run (Caenorhabditis elegans). Entry: FC(F)(F)c1cccc(CNc2cc(Oc3cccc(Cl)c3)ncn2)c1
142
